Here the recorded fold-change of OD 450 over negative control (BSA) is given for each entry.
system: T1, Latent Activin A (human, UniProt P08476 21-426, limits assumed)
T1 construct: also called INHBA latent
T1 sequence: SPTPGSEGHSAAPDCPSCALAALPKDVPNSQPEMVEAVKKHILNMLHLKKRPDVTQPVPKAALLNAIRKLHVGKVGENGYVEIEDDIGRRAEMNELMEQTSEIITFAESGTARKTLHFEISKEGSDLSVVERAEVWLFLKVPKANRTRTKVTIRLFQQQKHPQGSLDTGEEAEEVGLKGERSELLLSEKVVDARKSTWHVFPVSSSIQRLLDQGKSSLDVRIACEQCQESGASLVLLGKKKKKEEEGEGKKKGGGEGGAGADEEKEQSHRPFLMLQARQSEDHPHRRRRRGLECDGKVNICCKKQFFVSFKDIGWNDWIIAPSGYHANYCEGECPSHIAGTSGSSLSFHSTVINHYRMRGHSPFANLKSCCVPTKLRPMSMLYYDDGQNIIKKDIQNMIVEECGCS
experimental-protocol: ELISA, coated antigen, OD450
Kindly provide the numeric value in fold only, without the unit symbol.

// query fold-change of OD 450 over negative control (BSA) value for entry AB439 (antibody, IgG1, V domains shown) VH: EVQLVQSGAEVKKPGASVKVSCKASGYTYTGYRISWVRQAPGQGLEWMGWIDPKSGRTNYAQKLQGRGTMTTDPSTSTAYMELRSLRSDDTAVYYCAREVKQWLVPGRGVYWFDPWGQGTLVTVSS VL: ESALTQPASVSGSPGQSITISCTGTNIGLRSVSWYQQHPGKAPKLMIYDTNIRSSGVSNRFSGSKSGNTASLTISGLQAEDEADYYCSSYTSSSTDVFGGGTKLTVL
1.45

More entries:
// query fold-change of OD 450 over negative control (BSA) value for entry AB465 (antibody, IgG1, V domains shown) VH: QVQLQESGPGLVKPSQTLSLTCTVSGASVSNARTGVNWIRQPPGKGLEWIGYINPSGRIDYNPSLKSRVTMSVDTSKNQFSLKVNSVTAADTAVYYCARAGYPDVWGKGTTVTVSS VL: EIVMTQSPATLSLSPGERATLSCRASQTVSSHLAWYQQKPGQAPRLLIYDVSHRASGIPARFSGSGSGTDFTLTISSLEPEDFAVYYCQQYFTLPTFGGGTKVEIK
5.82

// query fold-change of OD 450 over negative control (BSA) value for entry AB438 (antibody, IgG1, V domains shown) VH: QVQLQESGPGLVKPSQTLSLTCTVSGVSLSNARLGVNWIRQPPGKGLEWIGYGSVTGSTDYNPSLKSRVTMSVDTSKNQFSLKVNSVTAADTAVYYCTTSYLVDTAMVTRWGQGTLVTVSS VL: EIVMTQSPATLSLSPGERATLSCRASQSLGTNLAWYQQKPGQAPRLLIYGASSRPSGIPARFSGSGSGTDFTLTISSLEPEDFAVYYCQQYDTHPLSFGGGTKVEIK
2.34
